B1: HDV Ribozyme (parent)
chain: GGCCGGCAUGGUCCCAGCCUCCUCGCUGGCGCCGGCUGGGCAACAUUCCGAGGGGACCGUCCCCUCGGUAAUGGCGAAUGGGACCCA

# Variants of: B1
# test_description: self-cleavage, relative activity (ratio to wild type); higher = more cleavage; co-transcriptional
Field: self-cleavage. Provide a value for each of the variants that follow.
The answer should be written as a number, with no unit following it.

Please give the measured self-cleavage for this variant: C41A U46C
0.415

What about this variant? C3A C86U
0.745

Same question for C84U A87U please.
0.946

Lookup U65C U79G
0.396

The values you see were collected from the RNAGym collection of RNA variant scans (doi:10.7554/elife.80360).
